Provenance of the data: the kinase profiling compilation of Christmann-Franck et al. (2016)

Molecular target: NEK1 (human) (UniProt Q96PY6)
Sequence (Q96PY6 whole entry, looked up): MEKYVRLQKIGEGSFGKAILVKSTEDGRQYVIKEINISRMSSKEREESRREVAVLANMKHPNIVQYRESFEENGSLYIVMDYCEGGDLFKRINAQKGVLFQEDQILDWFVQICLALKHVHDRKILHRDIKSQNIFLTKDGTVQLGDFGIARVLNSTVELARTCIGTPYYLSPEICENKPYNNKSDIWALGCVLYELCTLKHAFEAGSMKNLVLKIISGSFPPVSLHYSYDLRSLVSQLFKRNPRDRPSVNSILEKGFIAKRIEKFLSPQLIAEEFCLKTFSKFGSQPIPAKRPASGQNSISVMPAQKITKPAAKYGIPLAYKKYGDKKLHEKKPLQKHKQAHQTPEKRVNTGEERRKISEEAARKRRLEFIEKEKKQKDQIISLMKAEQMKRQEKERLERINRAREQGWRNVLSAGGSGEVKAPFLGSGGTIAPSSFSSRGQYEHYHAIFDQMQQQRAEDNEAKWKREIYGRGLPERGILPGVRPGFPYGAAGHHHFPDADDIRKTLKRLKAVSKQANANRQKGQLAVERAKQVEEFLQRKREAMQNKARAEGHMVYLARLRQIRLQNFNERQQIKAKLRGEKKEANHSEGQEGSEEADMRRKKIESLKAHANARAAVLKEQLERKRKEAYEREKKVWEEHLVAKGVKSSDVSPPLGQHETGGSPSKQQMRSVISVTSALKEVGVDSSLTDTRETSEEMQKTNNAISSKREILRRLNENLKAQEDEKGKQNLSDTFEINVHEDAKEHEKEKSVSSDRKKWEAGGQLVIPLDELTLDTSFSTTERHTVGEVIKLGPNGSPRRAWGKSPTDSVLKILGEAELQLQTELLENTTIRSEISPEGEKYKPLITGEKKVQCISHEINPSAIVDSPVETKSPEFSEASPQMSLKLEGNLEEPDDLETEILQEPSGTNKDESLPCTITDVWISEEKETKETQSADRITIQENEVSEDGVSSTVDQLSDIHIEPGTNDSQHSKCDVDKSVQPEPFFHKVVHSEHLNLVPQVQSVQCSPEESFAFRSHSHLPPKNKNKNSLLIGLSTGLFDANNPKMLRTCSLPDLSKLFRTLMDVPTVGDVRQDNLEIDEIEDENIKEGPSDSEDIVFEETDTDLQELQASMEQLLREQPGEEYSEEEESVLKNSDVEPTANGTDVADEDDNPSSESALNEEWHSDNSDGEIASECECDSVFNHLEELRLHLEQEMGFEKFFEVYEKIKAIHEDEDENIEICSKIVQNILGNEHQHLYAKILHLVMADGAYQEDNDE
Experiment: radiometric filter-binding kinase assay, Kinase HotSpot
Settings: compound 0.5 µM; ATP 10 µM
Rule: residual activity under 90% gives Criterion not met, otherwise Criterion met.

> print(dat)
                           structure.string                      tested.on        group.label
1  COc1cc2c(N3CCN(C(=O)Nc4ccc(OC(C)C)cc4)CC3)ncnc2cc1OCCCN1CCCCC1  NEK1 (human) (UniProt Q96PY6)      Criterion met
2  FC(F)(F)c1ccc(/C=C/c2nc(COc3ccc(CCCCn4ccnn4)cc3)co2)cc1  NEK1 (human) (UniProt Q96PY6)      Criterion met
3          O=C(c1ccccc1)c1ccc(N2CCOCC2)cc1O  NEK1 (human) (UniProt Q96PY6)      Criterion met
4  N#CCCc1ccc2c(c1)-c1[nH]c3ccc([N+](=O)[O-])cc3c1CC(=O)N2  NEK1 (human) (UniProt Q96PY6)      Criterion met
5                   Nc1ncnc2c1cnn2-c1ccccc1  NEK1 (human) (UniProt Q96PY6)  Criterion not met
6          COc1cccc(-c2cc(=O)c3ccccc3o2)c1N  NEK1 (human) (UniProt Q96PY6)  Criterion not met

Now for another entry.
Textbook exercise: given the entry O=c1cc(N2CCOCC2)oc2c(-c3ccccc3)cccc12 , state whether its residual activity is greater than or equal to 90%. Criterion not met
